Each entry below lists one item and its recorded CC50 at 48 h value.
assay: Detection of toxicity of samples to MDCK cells (alamarBlue); format: cell-based; conditions: dog, 48 hours incubation
measurementName: CC50 at 48 h

* [2H][C@]1(N2[C@@H]3COCCN3C(=O)c3c(O)c(=O)ccn32)c2ccccc2SCc2c1ccc(F)c2F | 48.3 µM
* O=C1c2c(O)c(=O)ccn2N([C@@H]2c3ccccc3SCc3c2ccc(F)c3F)[C@@H]2COCCN12 [S-033188A, reference compound] | 29.9 µM

====

test: Bioavailability test; type: in vivo, SD rats; conditions: SD rats, from AUC of oral and intravenous administration
Each entry below lists one item and its recorded BA% value.
measurementName: BA% (%)

- [2H][C@]1(N2[C@@H]3COCCN3C(=O)c3c(O)c(=O)ccn32)c2ccccc2SCc2c1ccc(F)c2F: 7.1
- [2H]C1([2H])Sc2ccccc2[C@]([2H])(N2[C@@H]3COCCN3C(=O)c3c(OCOC(=O)OC)c(=O)ccn32)c2ccc(F)c(F)c21: 19.8
- O=C1c2c(O)c(=O)ccn2N([C@@H]2c3ccccc3SCc3c2ccc(F)c3F)[C@@H]2COCCN12 [S-033188A, reference compound]: 4.7
- COC(=O)OCOc1c2n(ccc1=O)N([C@@H]1c3ccccc3SCc3c1ccc(F)c3F)[C@@H]1COCCN1C2=O [S-033188B, reference compound]: 15.3
- [2H]C1([2H])Sc2ccccc2[C@@H](N2[C@@H]3COCCN3C(=O)c3c(OCOC(=O)OC)c(=O)ccn32)c2ccc(F)c(F)c21: 15.9
- [2H]C1([2H])Sc2ccccc2[C@]([2H])(N2[C@@H]3COCCN3C(=O)c3c(O)c(=O)ccn32)c2ccc(F)c(F)c21: 7.8
- [2H]C1([2H])Sc2ccccc2[C@@H](N2[C@@H]3COCCN3C(=O)c3c(O)c(=O)ccn32)c2ccc(F)c(F)c21: 5.0
- [2H][C@]1(N2[C@@H]3COCCN3C(=O)c3c(OCOC(=O)OC)c(=O)ccn32)c2ccccc2SCc2c1ccc(F)c2F: 18.4
